B1: library; a variant is named by its letters at N, in order (parent)
chain: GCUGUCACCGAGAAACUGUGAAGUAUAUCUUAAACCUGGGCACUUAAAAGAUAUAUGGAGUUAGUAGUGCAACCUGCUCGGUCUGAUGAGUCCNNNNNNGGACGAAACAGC

- Variants of: B1
- protocol.text: FACS-Seq fitted mean relative fluorescence mCherry/BFP without ligand (log10 relative fluorescence); HEK293T; ligand: cyclic di-GMP (c-di-GMP-II aptamer); higher = higher reporter protein expression
- test.conditions: ligand present: no
measurement.type: FACS-Seq fitted mean (log10)
Answers are plain numbers.

mutation.id: CAAAGU
FACS-Seq fitted mean (log10): 0.000886

For every item in the list below, what is its measured FACS-Seq fitted mean (log10)?
1. CGAUAA
2. AGAAGA

1: -0.688; 2: -0.764

Need FACS-Seq fitted mean (log10) for each of these variants.
1. GCUGCG
2. CUGAUU
3. GCUCAU

1: -1.43; 2: -0.154; 3: -0.503

I would be grateful if you could provide FACS-Seq fitted mean (log10) for each of the following entries.
1. ACCAAA
2. ACUAAU
3. AGAAGG
4. AGCGUC
5. AAAUGU

1. -0.438
2. -0.784
3. -0.204
4. -0.71
5. -0.132

// batch mode: one FACS-Seq fitted mean (log10) value per listed entry
1. UAACGA
2. CGGACG
3. CUACGA
4. CUUGGA
5. CUAAUU
6. ACCGAA

1: -0.0411; 2: -1.09; 3: -0.199; 4: -0.381; 5: -0.314; 6: -0.328

Would you mind giving FACS-Seq fitted mean (log10) for every variant in the list below?
1. GCUGUA
2. UAAUCG
3. CGCUUU
4. GCAAUC
5. UCCAGA
6. GACGAA

1. -0.0986
2. -0.029
3. -0.255
4. -0.612
5. -0.246
6. -0.377

Parameter requested: FACS-Seq fitted mean (log10). Apply to each item below.
1. ACACUA
2. AAUAGU
3. UGAGUG
4. AGUUAG

-0.717
-0.334
-0.0499
-0.315

Kindly give each listed record's FACS-Seq fitted mean (log10).
1. CGUACA
2. GCCAUU
3. GAACAG
4. GUUGCG
5. CCUCCC
6. CCUUUA
7. AUUAGC

1. -0.654
2. -0.372
3. -0.182
4. -0.248
5. -0.363
6. -0.242
7. -0.0321

Need FACS-Seq fitted mean (log10) for each of these variants.
1. GAAUAG
2. CAGAAA
3. CAAAAC
4. CGCCAU
5. AUUCAG

1. -0.662
2. -0.664
3. -0.495
4. -0.339
5. -0.308
